// reported IC50 per item
Experiment: Inhibition of CDK4/cyclin D expressed in baculovirus infected insect Sf21 cells using [gamma-P32]ATP and histone H1 as substrate after 10 mins by radiometric assay

mol: N#Cc1cc2c(N)nc(NCCO)nc2nc1NCCO
IC50: 28 µM

mol: CC[C@H](CO)Nc1nc(NCc2ccccc2)c2ncn(C(C)C)c2n1
IC50: 15 µM

mol: Cc1c(C#N)c(NCCO)nc2ncnc(N)c12
IC50: 36 µM

mol: Nc1scc2c1c(NCCO)nc1ncnc(N)c12
IC50: 29 µM

mol: Cc1c(C#N)c(Nc2ccc(S(N)(=O)=O)cc2)nc2ncnc(N)c12
IC50: 16 µM

mol: Cc1c(C#N)c(Nc2ccc(S(N)(=O)=O)cc2)nc2nc(NCCO)nc(N)c12
IC50: 95 µM
